study_target: KAT2A (Homo sapiens, UniProt Q92830)
Sequence (Q92830 whole entry): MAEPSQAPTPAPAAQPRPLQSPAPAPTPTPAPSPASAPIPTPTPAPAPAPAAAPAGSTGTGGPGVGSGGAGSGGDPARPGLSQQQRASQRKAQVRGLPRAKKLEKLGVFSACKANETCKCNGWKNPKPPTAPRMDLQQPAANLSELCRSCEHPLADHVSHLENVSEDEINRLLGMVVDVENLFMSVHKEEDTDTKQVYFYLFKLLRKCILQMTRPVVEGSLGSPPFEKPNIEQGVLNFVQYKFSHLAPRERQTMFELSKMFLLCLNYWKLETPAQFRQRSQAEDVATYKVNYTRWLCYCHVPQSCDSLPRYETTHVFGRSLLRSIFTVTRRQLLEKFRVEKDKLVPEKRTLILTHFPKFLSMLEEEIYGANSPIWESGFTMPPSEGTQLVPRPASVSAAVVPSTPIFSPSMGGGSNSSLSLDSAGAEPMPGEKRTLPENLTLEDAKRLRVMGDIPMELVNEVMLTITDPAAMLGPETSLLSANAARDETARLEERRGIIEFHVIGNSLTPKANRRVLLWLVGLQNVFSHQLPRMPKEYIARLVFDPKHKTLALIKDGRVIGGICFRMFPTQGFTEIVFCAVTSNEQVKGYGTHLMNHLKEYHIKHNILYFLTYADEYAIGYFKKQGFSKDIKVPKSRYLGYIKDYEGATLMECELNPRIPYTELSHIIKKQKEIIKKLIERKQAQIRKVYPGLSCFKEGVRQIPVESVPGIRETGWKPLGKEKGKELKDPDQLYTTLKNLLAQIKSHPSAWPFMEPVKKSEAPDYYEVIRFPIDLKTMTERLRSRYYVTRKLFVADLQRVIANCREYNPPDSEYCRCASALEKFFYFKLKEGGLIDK
assay_notes: KAT2A degradation, Western Blot (Jess), MOLM-13 cells
Type: cell-based
Design: degrader, Western blot
experimental_setup: MOLM-13 cells, KAT2A, 24 h, Western Blot, vs DMSO; read-out: KAT2A MOLM-13 DC50
endpoint_name: DC50

Recorded DC50, per entry:
1) CN1C[C@H](Nc2cnn(C)c(=O)c2Br)C[C@H](c2ccc(C(=O)NCCCCCCOc3cccc4c3C(=O)N(C3CCC(=O)NC3=O)C4=O)cc2)C1 (stereo partly drawn) ... < 1 nM
2) CN1C[C@H](Nc2cnn(C)c(=O)c2Br)C[C@H](c2ccc(C(=O)N3CCN(C4CCN(C5CCC(=O)NC5=O)CC4)CC3)cc2)C1 (stereo partly drawn) ... 1 to 30 nM
3) CN1C[C@H](Nc2cnn(C)c(=O)c2Br)C[C@H](c2ccc(CN3CCN(Cc4ccc5c(c4)CN(C4CCC(=O)NC4=O)C5=O)CC3)cc2)C1 (stereo partly drawn) ... < 1 nM
4) CN1C[C@H](Nc2ccn(C)c(=O)c2Br)C[C@H](c2ccc(CN3CCC(c4ccc5c(c4)CN(C4CCC(=O)NC4=O)C5=O)CC3)cc2)C1 (stereo partly drawn) ... < 1 nM
5) Cc1c(N[C@@H]2C[C@H](c3ccc(CN4CCC(c5ccc6c(c5)CN(C5CCC(=O)NC5=O)C6=O)CC4)cc3)CN(C)C2)cnn(C)c1=O (stereo partly drawn) ... < 1 nM

QUERY: What measured DC50 goes with Cc1ccc(N2CCN(Cc3ccc([C@H]4C[C@@H](Nc5cnn(C)c(=O)c5Br)CN(C)C4)cc3)CC2)cc1C1CCC(=O)NC1=O (stereo partly drawn) ?
RESULT: < 1 nM

* * *

study_target: UniProt:Q92831
Sequence (Q92831 whole entry): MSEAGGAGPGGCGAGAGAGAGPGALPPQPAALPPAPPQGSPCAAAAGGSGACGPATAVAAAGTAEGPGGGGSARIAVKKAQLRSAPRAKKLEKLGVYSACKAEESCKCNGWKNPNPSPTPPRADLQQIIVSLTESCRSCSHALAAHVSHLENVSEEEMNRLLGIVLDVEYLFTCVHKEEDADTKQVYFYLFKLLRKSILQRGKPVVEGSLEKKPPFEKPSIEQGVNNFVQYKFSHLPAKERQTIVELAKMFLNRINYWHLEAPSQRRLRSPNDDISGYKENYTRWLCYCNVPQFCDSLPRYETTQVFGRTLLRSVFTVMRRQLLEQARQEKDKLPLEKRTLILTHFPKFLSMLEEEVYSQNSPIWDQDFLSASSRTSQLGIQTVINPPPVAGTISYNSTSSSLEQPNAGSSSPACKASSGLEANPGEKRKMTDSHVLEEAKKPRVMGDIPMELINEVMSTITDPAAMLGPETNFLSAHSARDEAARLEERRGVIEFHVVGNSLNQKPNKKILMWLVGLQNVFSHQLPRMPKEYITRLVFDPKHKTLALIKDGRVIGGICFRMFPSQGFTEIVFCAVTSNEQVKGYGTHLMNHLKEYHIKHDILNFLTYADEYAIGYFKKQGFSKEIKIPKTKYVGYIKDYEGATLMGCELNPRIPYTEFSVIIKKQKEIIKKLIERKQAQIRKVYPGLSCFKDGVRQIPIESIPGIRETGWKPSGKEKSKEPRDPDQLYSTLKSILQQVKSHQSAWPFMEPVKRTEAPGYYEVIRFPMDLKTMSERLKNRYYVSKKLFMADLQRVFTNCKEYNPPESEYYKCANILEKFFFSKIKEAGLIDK
assay_notes: KAT2B degradation, Western Blot (Jess), NCI-H1048 cells
Format: cell-based
Design: degrader, Western blot (Jess)
experimental_setup: NCI-H1048 cells, KAT2B, 24 h, Western Blot, vs DMSO; read-out: KAT2B NCI-H1048 DC50
Each entry below lists one item and its recorded DC50 value.

1) Cc1cc(C2CCC(=O)NC2=O)ccc1N1CCC2(CCN(C(=O)c3ccc([C@H]4C[C@@H](Nc5cnn(C)c(=O)c5Br)CN(C)C4)cc3)CC2)CC1 (some centres unmarked) ... 1 to 30 nM
2) CN1C[C@H](Nc2cnn(C)c(=O)c2Br)C[C@H](c2ccc(C(=O)N3CC(c4ccc(C5CCC(=O)NC5=O)cc4)C3)cc2)C1 (some centres unmarked) ... > 30 nM
3) CN1C[C@H](Nc2cnn(C)c(=O)c2Cl)C[C@H](c2ccc(CN3CCN(c4ccc5c(C6CCC(=O)NC6=O)nccc5c4)CC3)cc2)C1 (some centres unmarked) ... 1 to 30 nM

QUERY: State the recorded DC50 for this entry: COc1cc(C2CCC(=O)NC2=O)ccc1N1CCC2(CCN(C(=O)c3ccc([C@H]4C[C@@H](Nc5cnn(C)c(=O)c5Cl)CN(C)C4)cc3)CC2)CC1 (some centres unmarked)
RESULT: > 30 nM

QUERY: And for Cc1c(N[C@@H]2C[C@H](c3ccc(C(=O)N4CCC5(CCC(c6ccc(C7CCC(=O)NC7=O)cc6)CC5)CC4)cc3)CN(C)C2)ccn(C)c1=O (some centres unmarked) ?
RESULT: 1 to 30 nM

QUERY: Same thing, different compound: Cc1ncsc1-c1ccc(CNC(=O)[C@@H]2C[C@@H](O)CN2C(=O)[C@@H](NC(=O)CCCCCCCCNC(=O)c2ccc([C@H]3C[C@@H](Nc4cnn(C)c(=O)c4Br)CN(C)C3)cc2)C(C)(C)C)cc1
RESULT: > 30 nM

* * *

study_target: KAT2A (Homo sapiens, UniProt Q92830)
assay_notes: KAT2A degradation, Western Blot (Jess), NCI-H1048 cells
Type: cell-based
Design: degrader, Western blot (Jess)
experimental_setup: NCI-H1048 cells, KAT2A, 24 h, Western Blot, vs DMSO; read-out: KAT2A NCI-H1048 DC50
endpoint_name: DC50

Examples from the recorded data:
1) Cc1c(N[C@@H]2C[C@H](c3ccc(C(=O)N4CCC5(CCC(c6ccc(C7CCC(=O)NC7=O)cc6)CC5)CC4)cc3)CN(C)C2)ccn(C)c1=O (stereo partly drawn) [Compound 315] ... < 1 nM
2) CN1C[C@H](Nc2cnn(C)c(=O)c2Br)C[C@H](c2ccc(CN3CCN(c4cccc(C5CCC(=O)NC5=O)c4)CC34CC4)cc2)C1 (stereo partly drawn) [Compound 348] ... < 1 nM

Please examine the following record next.
QUERY: Record lookup: for KAT2A (Homo sapiens, UniProt Q92830), what DC50 belongs to CN1C[C@H](Nc2cnn(C)c(=O)c2Br)C[C@H](c2ccc(CN3CCC(c4ccc5c(C6CCC(=O)NC6=O)cncc5c4)C(F)(F)C3)cc2)C1 (stereo partly drawn) [Compound 388] ?
RESULT: < 1 nM

* * *

Entries and their DC50 values follow.
study_target: KAT2A (Homo sapiens)
assay_notes: KAT2A degradation, Western Blot (Jess), NCI-H1048 cells
Assay type: cell-based
Design: degrader, Western blot (Jess)
experimental_setup: NCI-H1048 cells, KAT2A, 24 h, Western Blot, vs DMSO; read-out: KAT2A NCI-H1048 DC50

1) CN1C[C@H](Nc2cnn(C)c(=O)c2Br)C[C@H](c2ccc(C(=O)N3CCC4(CC3)CN(c3ccc(C5CCC(=O)NC5=O)cc3)C4)cc2)C1 (stereo partly drawn) ... < 1 nM
2) CN1C[C@H](Nc2cnn(C)c(=O)c2Br)C[C@H](c2ccc(CN3C4CC3CN(c3cccc(C5CCC(=O)NC5=O)c3)C4)cc2)C1 (stereo partly drawn) ... < 1 nM
3) Cc1cc(N2CCC3(CCN(C(=O)c4ccc([C@H]5C[C@@H](Nc6cnn(C)c(=O)c6Cl)CN(C)C5)cc4)CC3)CC2)cnc1C1CCC(=O)NC1=O (stereo partly drawn) ... < 1 nM
4) Cc1c(N[C@@H]2C[C@H](c3ccc(CN4CCN(c5cc(C6CCC(=O)NC6=O)c(F)cc5F)CC4)cc3)CN(C)C2)cnn(C)c1=O (stereo partly drawn) ... > 30 nM
5) CN1C[C@H](Nc2cnn(C)c(=O)c2Cl)C[C@H](c2ccc(N3CCC4(CC3)CCN(c3cccc(CN5CCC(=O)NC5=O)c3)CC4)cc2)C1 ... < 1 nM

QUERY: Any idea what its DC50 is? The compound is CN1C[C@H](Nc2ccn(C)c(=O)c2Cl)C[C@H](c2ccc(C(=O)N3CCC4(CCC(c5ccc(C6CCC(=O)NC6=O)cc5)CC4)CC3)cc2)C1 (stereo partly drawn)
RESULT: < 1 nM

QUERY: Now the same for C[C@@H]1CN(c2cccc(C3CCC(=O)NC3=O)c2)C[C@H](C)N1Cc1ccc([C@H]2C[C@@H](Nc3cnn(C)c(=O)c3Cl)CN(C)C2)cc1 (stereo partly drawn)
RESULT: 1 to 30 nM

QUERY: Please do the same for CN1C[C@H](Nc2cnn(C)c(=O)c2Cl)C[C@H](c2ccc(C(=O)N3CCC4(CC3)CCN(c3ccc(C5CCC(=O)NC5=O)c(OC(F)(F)F)c3)CC4)cc2)C1 (stereo partly drawn) as well.
RESULT: > 30 nM

QUERY: // query: COc1cc(C2CCC(=O)NC2=O)ccc1N1CCC2(CCN(C(=O)c3ccc([C@H]4C[C@@H](Nc5cnn(C)c(=O)c5C)CN(C)C4)cc3)CC2)CC1 (stereo partly drawn)
RESULT: < 1 nM

QUERY: Cool, now CN1C[C@H](Nc2cnn(C)c(=O)c2Br)C[C@H](c2ccc(CN3CCN(c4cc(C5CCC(=O)NC5=O)ccn4)CC3)cc2)C1 (stereo partly drawn)
RESULT: 1 to 30 nM

QUERY: Then Cc1cc(C2CCC(=O)NC2=O)c(F)cc1N1CCC2(CCN(C(=O)c3ccc([C@H]4C[C@@H](Nc5cnn(C)c(=O)c5Br)CN(C)C4)cc3)CC2)CC1 (stereo partly drawn) ?
RESULT: 1 to 30 nM

QUERY: Proceed to CN1C[C@H](Nc2cnn(C)c(=O)c2Cl)C[C@H](c2ccc(CN3CCN(c4cccc(C5CCC(=O)NC5=O)c4)CC3)cc2)C1 (stereo partly drawn) [Compound 361]
RESULT: < 1 nM

* * *

# Lookup of reported DC50 keyed by entry
study_target: KAT2A (Homo sapiens, UniProt Q92830)
assay_notes: KAT2A degradation, Western Blot (Jess), MOLM-13 cells
Format: cell-based
Parameters: degrader, Western blot
experimental_setup: MOLM-13 cells, KAT2A, 24 h, Western Blot, vs DMSO; read-out: KAT2A MOLM-13 DC50

# count of solved cases: 3
1) CN1C[C@H](Nc2cnn(C)c(=O)c2Cl)C[C@H](c2ccc(CN3CCC(c4ccc5c(c4)CN(C4CCC(=O)NC4=O)C5=O)CC3)cc2)C1 (stereo partly drawn) ... < 1 nM
2) CN1C[C@H](Nc2cnn(C)c(=O)c2Br)C[C@H](c2ccc(C(=O)N3CCC(Oc4cccc(C5CCC(=O)NC5=O)c4)CC3)cc2)C1 (stereo partly drawn) [Compound 119] ... 1 to 30 nM
3) CN1C[C@H](Nc2cnn(C)c(=O)c2Br)C[C@H](c2ccc(C(=O)N3CC(Oc4ccc5c(c4)C(=O)N(C4CCC(=O)NC4=O)C5=O)C3)cc2)C1 (stereo partly drawn) ... 1 to 30 nM

QUERY: What value of measured DC50 is listed for CN1C[C@H](Nc2cnn(C)c(=O)c2Br)C[C@H](c2ccc(CN3CC(Oc4cccc5c4C(=O)N(C4CCC(=O)NC4=O)C5=O)C3)cc2)C1 (stereo partly drawn) ?
RESULT: 1 to 30 nM

QUERY: Record: CN1C[C@H](Nc2cnn(C)c(=O)c2Br)C[C@H](c2ccc(CN3CC4(C3)CN(c3cccc5c3C(=O)N(C3CCC(=O)NC3=O)C5=O)C4)cc2)C1 (stereo partly drawn)
RESULT: > 30 nM

QUERY: Also CN1C[C@H](Nc2cnn(C)c(=O)c2Br)C[C@H](c2ccc(C(=O)N3CCC(F)(CN4CCN(c5ccc6c(c5)C(=O)N(C5CCC(=O)NC5=O)C6=O)CC4)CC3)cc2)C1 (stereo partly drawn) ?
RESULT: < 1 nM
